Values compiled from paper PMC3190643.

test: in vivo; settings: male, C57Bl/6J, mouse, iv, t½ β (terminal half life), IV dose of 5d […], mice
Item-by-item account of half-life
Please respond with the number in min and leave the unit unwritten.

[
  {
    "COMPOUND": "Nc1ccc(Oc2ccc(S(=O)(=O)CC3CS3)cc2)cc1 (centres unmarked)",
    "OUTPUT_UNIT": "min",
    "half-life": 69
  }
]

Next item in the queue.
Summary for this compound, N=C(N)NCCC[C@H](N)C(=O)Nc1ccc(Oc2ccc(S(=O)(=O)CC3CS3)cc2)cc1 (some centres unmarked) : half-life is 260

----------
experiment: Metabolic stability in mouse liver microsomes; assay type: in vitro ADME; settings: mouse, microsomes, pH 7.4, CLint,app, calculated from in vitro half-life
MEASURED_QUANTITY: CLint scaled at 100 μM (L/h/kg)
# value in L/h/kg; strip the unit string

Input Nc1ccc(Oc2ccc(S(=O)(=O)CC3CS3)cc2)cc1 (centres unmarked) . Output CLint scaled at 100 μM: 6.18
